target: mAChR M4 (Homo sapiens, UniProt P08173); construct: expressed in transfected cells; host or cells: CHO-K1 cells stably transfected with M4 cDNA and chimeric G-protein Gqi5; assay: mAChR M4 cell-based functional assay (calcium mobilization, potentiation of EC20 acetylcholine response); conditions: % ACh maximum at 30 μM
Sequence (P08173 whole entry): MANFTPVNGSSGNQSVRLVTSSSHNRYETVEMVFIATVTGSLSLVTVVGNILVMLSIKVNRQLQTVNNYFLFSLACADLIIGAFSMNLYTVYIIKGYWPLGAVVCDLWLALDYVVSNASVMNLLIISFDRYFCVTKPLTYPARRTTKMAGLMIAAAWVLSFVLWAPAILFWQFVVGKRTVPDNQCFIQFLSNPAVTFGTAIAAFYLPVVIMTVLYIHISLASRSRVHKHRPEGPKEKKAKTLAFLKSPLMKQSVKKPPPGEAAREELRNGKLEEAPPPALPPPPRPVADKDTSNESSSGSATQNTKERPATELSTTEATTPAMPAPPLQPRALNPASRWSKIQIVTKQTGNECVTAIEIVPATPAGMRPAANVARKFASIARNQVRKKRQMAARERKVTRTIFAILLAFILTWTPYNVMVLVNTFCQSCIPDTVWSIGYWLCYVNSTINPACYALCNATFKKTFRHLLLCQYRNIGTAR

# compound, unit_text, Emax at 30 µM
rows = [
    ("Cc1nnc2sc(C(=O)NCc3ccc(F)cc3)c(N)c2c1C", "%", 68),
    ("COc1cncc(NC(=O)c2sc3nnc(C)c(C)c3c2N)c1", "%", 30),
    ("COc1cccc(C2(OC)CN(C(=O)c3sc4nnc(C)c(C)c4c3N)C2)c1", "%", 39),
    ("COc1ccc(C2CC2NC(=O)c2sc3nnc(C)c(C)c3c2N)cc1 (stereo not drawn)", "%", 76),
    ("Cc1nnc2sc(C(=O)NC(C)(C)C)c(N)c2c1C", "%", 68),
    ("Cc1nnc2sc(C(=O)NC3CN(C(=O)c4cccc(Cl)c4)C3)c(N)c2c1C", "%", 60),
    ("Cc1nnc2sc(C(=O)NCc3ccc(S(=O)(=O)C(F)F)c(F)c3)c(N)c2c1C", "%", 85),
    ("Cc1nnc2sc(C(=O)N3CC(F)(c4ccc(Cl)cc4)C3)c(N)c2c1C", "%", 54),
    ("Cc1nnc2sc(C(=O)NCc3ccc(-n4ccnc4)cc3)c(N)c2c1C", "%", 61),
]
